experimental protocol: Stability of cannabinoid compounds and Vitamin E components in Beverage 2 (AB Red) by LCMSMS
Type: physicochemical
condition set: stored at 21-25° C., 60 days
Would you kindly list Stability of Plant-Derived Cannabinoid Compounds in AB Red for each of these molecules?
Kindly answer with a numeric value in µg/mL, unit omitted.

Query :: Find the measured Stability of Plant-Derived Cannabinoid Compounds in AB Red of "C=C(C)[C@@H]1CCC(C)=C[C@H]1c1c(O)cc(CCC)cc1O" and report it.
Result :: 0.20

Query :: Find the measured Stability of Plant-Derived Cannabinoid Compounds in AB Red of "CCCCCc1cc(O)c2c(c1)OC(C)(C)c1ccc(C)cc1-2" and report it.
Result :: 2.78

Query :: Find the measured Stability of Plant-Derived Cannabinoid Compounds in AB Red of "CCCCCc1cc(O)c(C/C=C(\C)CCC=C(C)C)c(O)c1" and report it.
Result :: 4.61

Query :: Find the measured Stability of Plant-Derived Cannabinoid Compounds in AB Red of CCCCCc1cc2c(c(O)c1C(=O)O)[C@@H]1C=C(C)CC[C@H]1C(C)(C)O2 [D9 THCA, delta-9-tetrahydrocannabinolic acid] and report it.
Result :: 1.28

Query :: Find the measured Stability of Plant-Derived Cannabinoid Compounds in AB Red of CCCCCc1cc(O)c2c(c1)OC(C)(CCC=C(C)C)C=C2 (stereo not drawn) and report it.
Result :: 0.29

Query :: Find the measured Stability of Plant-Derived Cannabinoid Compounds in AB Red of CCCCCc1cc(O)c2c(c1)OC1(C)CCC3C1C2C3(C)C (stereo not drawn) and report it.
Result :: 0.50

----------
experimental protocol: Stability of cannabinoid entourage and Vitamin E components of the powder concentrate by LCMSMS
Type: physicochemical
condition set: powder stored at 21-25° C.; 25 days
measured parameter: Stability of Plant-Derived Cannabinoid Compounds in Powder Concentrate (mg/g powder)
Kindly answer with a numeric value in mg/g powder, unit omitted.

Query :: Find the measured Stability of Plant-Derived Cannabinoid Compounds in Powder Concentrate of "CCCCCc1cc(O)c2c(c1)OC(C)(C)c1ccc(C)cc1-2" and report it.
Result :: 0.486

Query :: Find the measured Stability of Plant-Derived Cannabinoid Compounds in Powder Concentrate of "CCCCCc1cc(O)c(C/C=C(\C)CCC=C(C)C)c(O)c1" and report it.
Result :: 1.13

Query :: Find the measured Stability of Plant-Derived Cannabinoid Compounds in Powder Concentrate of "C=C(C)[C@@H]1CCC(C)=C[C@H]1c1c(O)cc(CCC)cc1O" and report it.
Result :: 0.052

Query :: Find the measured Stability of Plant-Derived Cannabinoid Compounds in Powder Concentrate of CCCCCc1cc(O)c2c(c1)OC1(C)CCC3C1C2C3(C)C (stereo not shown) and report it.
Result :: 0.050

Query :: Find the measured Stability of Plant-Derived Cannabinoid Compounds in Powder Concentrate of C=C(C)[C@@H]1CCC(C)=C[C@H]1c1c(O)cc(CCCCC)cc1O [CBD, cannabidiol, reference compound] and report it.
Result :: 6.01

Query :: Find the measured Stability of Plant-Derived Cannabinoid Compounds in Powder Concentrate of CCCc1cc(O)c2c(c1)OC(C)(C)[C@@H]1CCC(C)=C[C@@H]21 [THCV, delta-9-tetrahydrocannabivarin] and report it.
Result :: 0.689

Query :: Find the measured Stability of Plant-Derived Cannabinoid Compounds in Powder Concentrate of CCCCCc1cc2c(c(O)c1C(=O)O)[C@@H]1C=C(C)CC[C@H]1C(C)(C)O2 [D9 THCA, delta-9-tetrahydrocannabinolic acid] and report it.
Result :: 0.150

Query :: Find the measured Stability of Plant-Derived Cannabinoid Compounds in Powder Concentrate of "C=C(C)[C@@H]1CCC(C)=C[C@H]1c1c(O)cc(CCCCC)c(C(=O)O)c1O" and report it.
Result :: 0.401

Query :: Find the measured Stability of Plant-Derived Cannabinoid Compounds in Powder Concentrate of CCCCCc1cc(O)c2c(c1)OC(C)(C)[C@@H]1CCC(C)=C[C@@H]21 [D9 THC, delta-9-tetrahydrocannabinol, reference compound] and report it.
Result :: 2.55

Query :: Find the measured Stability of Plant-Derived Cannabinoid Compounds in Powder Concentrate of CCCCCc1cc(O)c2c(c1)OC(C)(CCC=C(C)C)C=C2 (stereo not shown) and report it.
Result :: 0.072

----------
experimental protocol: Stability of cannabinoid compounds and Vitamin E components in Beverage 1 (AB White) by LCMSMS
Type: physicochemical
condition set: AB White stored at 21-25° C.; 510 days
Would you kindly list Stability of Plant-Derived Cannabinoid Compounds in AB White, 21-25° C. for each of these compounds?
Kindly answer with a numeric value in µg/mL, unit omitted.

Query :: Find the measured Stability of Plant-Derived Cannabinoid Compounds in AB White, 21-25° C. of CCCCCc1cc(O)c2c(c1)OC(C)(C)[C@@H]1CCC(C)=C[C@@H]21 [D9 THC, delta-9-tetrahydrocannabinol, reference compound] and report it.
Result :: 11.2

Query :: Find the measured Stability of Plant-Derived Cannabinoid Compounds in AB White, 21-25° C. of "CCCCCc1cc(O)c(C/C=C(\C)CCC=C(C)C)c(O)c1" and report it.
Result :: 4.51

Query :: Find the measured Stability of Plant-Derived Cannabinoid Compounds in AB White, 21-25° C. of CCCCCc1cc(O)c2c(c1)OC(C)(CCC=C(C)C)C=C2 (stereo not shown) and report it.
Result :: 0.293

Query :: Find the measured Stability of Plant-Derived Cannabinoid Compounds in AB White, 21-25° C. of "C=C(C)[C@@H]1CCC(C)=C[C@H]1c1c(O)cc(CCCCC)c(C(=O)O)c1O" and report it.
Result :: 1.66

----------
experimental protocol: Stability of cannabinoid compounds and Vitamin E components in Beverage 2 (AB Red) by LCMSMS
Format: physicochemical
condition set: stored at 8° C., 9 days
Returns: string. Value is 1 if measured Stability of Plant-Derived Cannabinoid Compounds in AB Red is below 1 µg/mL, and 0 if it is greater than or equal to it.

Query :: Quick check: Stability of Plant-Derived Cannabinoid Compounds in AB Red of CCCCCc1cc(O)c2c(c1)OC(C)(CCC=C(C)C)C=C2 (stereo not drawn) under 1 µg/mL?
Result :: 1

Query :: Quick check: Stability of Plant-Derived Cannabinoid Compounds in AB Red of CCCCCc1cc2c(c(O)c1C(=O)O)[C@@H]1C=C(C)CC[C@H]1C(C)(C)O2 [D9 THCA, delta-9-tetrahydrocannabinolic acid] under 1 µg/mL?
Result :: 0

Query :: Quick check: Stability of Plant-Derived Cannabinoid Compounds in AB Red of CCCc1cc(O)c2c(c1)OC(C)(C)[C@@H]1CCC(C)=C[C@@H]21 [THCV, delta-9-tetrahydrocannabivarin] under 1 µg/mL?
Result :: 0

Query :: Quick check: Stability of Plant-Derived Cannabinoid Compounds in AB Red of "CCCCCc1cc(O)c2c(c1)OC(C)(C)c1ccc(C)cc1-2" under 1 µg/mL?
Result :: 0

Query :: Quick check: Stability of Plant-Derived Cannabinoid Compounds in AB Red of CCCCCc1cc(O)c2c(c1)OC1(C)CCC3C1C2C3(C)C (stereo not drawn) under 1 µg/mL?
Result :: 1

Query :: Quick check: Stability of Plant-Derived Cannabinoid Compounds in AB Red of "C=C(C)[C@@H]1CCC(C)=C[C@H]1c1c(O)cc(CCCCC)c(C(=O)O)c1O" under 1 µg/mL?
Result :: 0

Query :: Quick check: Stability of Plant-Derived Cannabinoid Compounds in AB Red of "C=C(C)[C@@H]1CCC(C)=C[C@H]1c1c(O)cc(CCC)cc1O" under 1 µg/mL?
Result :: 1

Query :: Quick check: Stability of Plant-Derived Cannabinoid Compounds in AB Red of "CCCCCc1cc(O)c(C/C=C(\C)CCC=C(C)C)c(O)c1" under 1 µg/mL?
Result :: 0

Query :: Quick check: Stability of Plant-Derived Cannabinoid Compounds in AB Red of CCCCCc1cc(O)c2c(c1)OC(C)(C)[C@@H]1CCC(C)=C[C@@H]21 [D9 THC, delta-9-tetrahydrocannabinol, reference compound] under 1 µg/mL?
Result :: 0

----------
experimental protocol: Stability of cannabinoid entourage and Vitamin E components of the powder concentrate by LCMSMS
Format: physicochemical
condition set: powder stored at 21-25° C.; 5 days
Would you kindly list Stability of Plant-Derived Cannabinoid Compounds in Powder Concentrate for each of these compounds?
Reply with a number, then the unit it belongs to.

Query :: Find the measured Stability of Plant-Derived Cannabinoid Compounds in Powder Concentrate of CCCc1cc(O)c2c(c1)OC(C)(C)[C@@H]1CCC(C)=C[C@@H]21 [THCV, delta-9-tetrahydrocannabivarin] and report it.
Result :: 0.676 mg/g powder

Query :: Find the measured Stability of Plant-Derived Cannabinoid Compounds in Powder Concentrate of CCCCCc1cc(O)c2c(c1)OC(C)(CCC=C(C)C)C=C2 (stereo not drawn) and report it.
Result :: 0.070 mg/g powder

Query :: Find the measured Stability of Plant-Derived Cannabinoid Compounds in Powder Concentrate of CCCCCc1cc(O)c2c(c1)OC(C)(C)[C@@H]1CCC(C)=C[C@@H]21 [D9 THC, delta-9-tetrahydrocannabinol, reference compound] and report it.
Result :: 2.66 mg/g powder

Query :: Find the measured Stability of Plant-Derived Cannabinoid Compounds in Powder Concentrate of "C=C(C)[C@@H]1CCC(C)=C[C@H]1c1c(O)cc(CCCCC)c(C(=O)O)c1O" and report it.
Result :: 0.414 mg/g powder

Query :: Find the measured Stability of Plant-Derived Cannabinoid Compounds in Powder Concentrate of CCCCCc1cc(O)c2c(c1)OC1(C)CCC3C1C2C3(C)C (stereo not drawn) and report it.
Result :: 0.052 mg/g powder

Query :: Find the measured Stability of Plant-Derived Cannabinoid Compounds in Powder Concentrate of CCCCCc1cc2c(c(O)c1C(=O)O)[C@@H]1C=C(C)CC[C@H]1C(C)(C)O2 [D9 THCA, delta-9-tetrahydrocannabinolic acid] and report it.
Result :: 0.146 mg/g powder
